molecular target: serotonin 1A receptor (Rattus norvegicus, UniProt P19327); construct: To the receptor fraction of the hippocampus were added a test compound and 0.5 nM of [^3H]; 8-hydroxy-dipropylaminotetralin; from tissue; host or cells: rat hippocampus membrane fraction; assay: Binding test on [3H] 8-hydroxy-dipropylaminotetralin, hippocampus receptor fraction; design: species or system SD rats; details: rat hippocampus receptor fraction, 0.5 nM [3H] 8-OH-DPAT, room temperature 30 min; read-out: 5HT1
Sequence (P19327 whole entry): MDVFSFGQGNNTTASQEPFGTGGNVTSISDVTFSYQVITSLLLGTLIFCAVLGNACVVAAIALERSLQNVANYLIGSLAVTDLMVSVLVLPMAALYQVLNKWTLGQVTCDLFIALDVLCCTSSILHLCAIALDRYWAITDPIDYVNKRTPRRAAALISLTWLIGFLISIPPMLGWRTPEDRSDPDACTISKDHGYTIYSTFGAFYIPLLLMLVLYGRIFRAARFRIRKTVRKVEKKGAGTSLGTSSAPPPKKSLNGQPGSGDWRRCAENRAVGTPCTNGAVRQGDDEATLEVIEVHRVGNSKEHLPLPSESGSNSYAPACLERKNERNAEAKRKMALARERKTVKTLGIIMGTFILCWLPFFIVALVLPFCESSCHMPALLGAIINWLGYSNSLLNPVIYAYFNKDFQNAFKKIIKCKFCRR
Counter-ions that a name gives are not always drawn.
Reported log10 of Ki values for a set of molecules
Annotation: log10 of Ki, nM basis.

Consider the following illustrative entries.
>  <MOLECULE>
CCCC(=O)NCc1ccc(-c2cc3ccccc3c(N3CCN(CC)CC3)n2)cc1 [Example 86, Hydrochloride]

>  <log10 of Ki>
1.07

$$$$
>  <MOLECULE>
CCN1CCN(c2nc(-c3ccc(OCCCS(C)(=O)=O)cc3)cc3ccccc23)CC1

>  <log10 of Ki>
1.02

$$$$
>  <MOLECULE>
CCC(O)c1cc(-c2cc3ccccc3c(N3CCN(CC)CC3)n2)cs1 (centres unmarked) [Example 164, hydrochloride]

>  <log10 of Ki>
0.97

$$$$
>  <MOLECULE>
CCCNC(=O)c1ccc(-c2cc3ccsc3c(N3CCN(CC)CC3)n2)cc1 [Example 449, dihydrochloride]

>  <log10 of Ki>
1.38

$$$$
>  <MOLECULE>
CCN1CCN(c2nc(/C=C/c3ccncc3)cc3ccccc23)CC1

>  <log10 of Ki>
0.82

$$$$
>  <MOLECULE>
CCCC(=O)Nc1ccc(-c2cc3ccccc3c(N3CCN(CC)CC3)n2)cn1 [Example 128, hydrochloride]

>  <log10 of Ki>
1.35

$$$$
>  <MOLECULE>
CCN1CCN(c2nc(-c3ccc(CCC(C)O)cc3)cc3ccoc23)CC1 (centres unmarked) [Example 300, dihydrochloride]

>  <log10 of Ki>
-0.31

$$$$

Now, please, on to the next molecule.
Request: Could you tell me which log10 of Ki is on file for CCN1CCN(c2nc(-c3ccc(CCCO)cc3)cc3cccnc23)CC1 [Example 247, Dihydrochloride] ?
Response: 1.40
